Where these numbers come from: the supplement of paper PMC10567573

B1: DYRK1B (parent)
chain: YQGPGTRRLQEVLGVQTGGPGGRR

- Variants of: B1
- Experimental Protocol: protein stability index of a GFP-peptide fusion (GPS, HEK-293T) (PSI 1-6); higher = more stable;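 also: lentivirally expressed fusions sorted by FACS into six bins by GFP to DsRed ratio, PSI derived from sequencing read proportions per bin multiplied by bin number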
- Test Parameters: c terminus: a fixed tail appended
Metric Name: protein stability index

Sequence Text: YQGPGTRRLQEVLGVQTGGPGDRR [G22D]
Observed Result: 3.39

Sequence Text: YQGPGTRRLIEVLGVQTGGPGGRR [Q10I]
Observed Result: 2.66

Sequence Text: YQGPGTPRLQEVLGVQTGGPGGRR [R7P]
Observed Result: 3.5

Sequence Text: YQGPGTRRLQEVLGVQTEGPGGRR [G18E]
Observed Result: 3.52

Sequence Text: YQGPGTRRDQEVLGVQTGGPGGRR [L9D]
Observed Result: 3.94

Sequence Text: YQGPGTRRLQEVLPVQTGGPGGRR [G14P]
Observed Result: 4.17

Sequence Text: YQGPGTRRLLEVLGVQTGGPGGRR [Q10L]
Observed Result: 2.28

Sequence Text: YFGPGTRRLQEVLGVQTGGPGGRR [Q2F]
Observed Result: 3.22

Sequence Text: YQGPGARRLQEVLGVQTGGPGGRR [T6A]
Observed Result: 2.71

Sequence Text: YQGPGTRRLQEVRGVQTGGPGGRR [L13R]
Observed Result: 3.61

Sequence Text: YQGPGTRRLQEVLGVQTGGPDGRR [G21D]
Observed Result: 3.88
